- targetDesc: G12C-mutant human KRAS (amino acid residues 1-188) (Homo sapiens, UniProt P01116, G12C)
- Construct: G12D or G12C-mutant human KRAS (amino acid residues 1-188) with FLAG tag; made in house; host or cells: E. coli
- Sequence (P01116 1-188 isoform P01116-2 G12C): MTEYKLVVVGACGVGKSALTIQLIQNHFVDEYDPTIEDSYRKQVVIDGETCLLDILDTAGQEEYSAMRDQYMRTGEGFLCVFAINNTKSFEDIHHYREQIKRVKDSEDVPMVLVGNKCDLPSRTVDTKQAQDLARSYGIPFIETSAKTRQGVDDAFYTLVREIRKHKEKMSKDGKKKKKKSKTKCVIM
- protocolNotes: KRAS Binding Disruption Assay (AlphaScreen; biotinylated KRpep-2d analogue or RAF1-RBD), G12C
- details: geometric mean, read-out: KRAS GMean IC50 (uM) MUTATION: G12C
Here the recorded IC50 is given for each entry.

The examples below pair each entry with its known result.
>  <compound>
CCc1cccc2[nH]cc(-c3c(F)cc4c(N5C[C@H]6CC[C@@H](C5)N6)nc(OCC56CCCN5CCC6)nc4c3F)c12

>  <IC50>
0.0001 to 10 µM

$$$$
>  <compound>
O=C(CCn1ccnc1)N1[C@@H]2CC[C@H]1CN(c1nc(OCC34CCCN3CCC4)nc3c(F)c(-c4cc(O)cc5ccccc45)ccc13)C2

>  <IC50>
0.0001 to 10 µM

$$$$
>  <compound>
NC(=O)CCN1[C@@H]2CC[C@H]1CN(c1nc(OCC34CCCN3CCC4)nc3c(F)c(-c4cc(O)cc5ccccc45)ccc13)C2

>  <IC50>
0.0001 to 10 µM

$$$$
>  <compound>
CN1CCC[C@H]1COc1nc(N2C[C@H]3CC[C@@H](C2)N3)c2cc(F)c(-c3cc(O)cc4ccccc34)c(F)c2n1

>  <IC50>
0.0001 to 10 µM

$$$$

Query for G12C-mutant human KRAS (amino acid residues 1-188) (Homo sapiens, UniProt P01116, G12C): what IC50 does the record show for CN1CCC[C@H]1COc1nc(N2C[C@H]3CC[C@@H](C2)N3C(=O)NC2CCNC2)c2ccc(-c3cc(O)cc4ccccc34)c(F)c2n1 (stereo partly drawn) ? 0.0001 to 10 µM

Query for G12C-mutant human KRAS (amino acid residues 1-188) (Homo sapiens, UniProt P01116, G12C): what IC50 does the record show for NC(=O)COc1nc(N2C[C@H]3CC[C@@H](C2)N3)c2ccc(-c3cc(O)cc4ccccc34)c(F)c2n1 ? 10 to 100 µM

Query for G12C-mutant human KRAS (amino acid residues 1-188) (Homo sapiens, UniProt P01116, G12C): what IC50 does the record show for C=CC(=O)N1[C@@H]2CC[C@H]1CN(c1nc(OC[C@@]34CCCN3C[C@H](F)C4)nc3c(F)c(-c4cc(O)cc5cccc(Cl)c45)ccc13)C2 ? 0.0001 to 10 µM

Query for G12C-mutant human KRAS (amino acid residues 1-188) (Homo sapiens, UniProt P01116, G12C): what IC50 does the record show for NS(=O)(=O)N1[C@@H]2CC[C@H]1CN(c1nc(OCC34CCCN3CCC4)nc3c(F)c(-c4cc(O)cc5ccccc45)ccc13)C2 ? 0.0001 to 10 µM

Query for G12C-mutant human KRAS (amino acid residues 1-188) (Homo sapiens, UniProt P01116, G12C): what IC50 does the record show for CCc1cccc2[nH]cc(-c3ncc4c(N5C[C@H]6CC[C@@H](C5)N6)nc(OC[C@@]56CCCN5C[C@H](F)C6)nc4c3F)c12 ? 0.0001 to 10 µM

Query for G12C-mutant human KRAS (amino acid residues 1-188) (Homo sapiens, UniProt P01116, G12C): what IC50 does the record show for N#CCCC(=O)N1[C@@H]2CC[C@H]1CN(c1nc(OCC34CCCN3CCC4)nc3c(F)c(-c4cc(O)cc5ccccc45)ccc13)C2 ? 0.0001 to 10 µM

Query for G12C-mutant human KRAS (amino acid residues 1-188) (Homo sapiens, UniProt P01116, G12C): what IC50 does the record show for CN1CCC[C@H]1COc1nc(N2C[C@H]3CC[C@@H](C2)N3)c2cc(F)c(-c3c[nH]c4cc(F)ccc34)c(F)c2n1 ? 10 to 100 µM

Query for G12C-mutant human KRAS (amino acid residues 1-188) (Homo sapiens, UniProt P01116, G12C): what IC50 does the record show for Oc1cc(-c2ccc3c(N4C[C@H]5CC[C@@H](C4)N5)nc(N4CC(O)(C(F)(F)F)C4)nc3c2F)c2ccccc2c1 ? 100 to 1000 µM

Query for G12C-mutant human KRAS (amino acid residues 1-188) (Homo sapiens, UniProt P01116, G12C): what IC50 does the record show for Fc1cc2c(N3C[C@H]4CC[C@@H](C3)N4)nc(OCC34CCCN3CCC4)nc2c(F)c1-c1c[nH]c2ccc(Cl)c(Cl)c12 ? 0.0001 to 10 µM

Query for G12C-mutant human KRAS (amino acid residues 1-188) (Homo sapiens, UniProt P01116, G12C): what IC50 does the record show for CN1CCC[C@H]1COc1nc(N2CC3COCC(C2)N3)c2cc(Cl)c(-c3cc(O)cc4cccc(Cl)c34)c(F)c2n1 ? 0.0001 to 10 µM

Query for G12C-mutant human KRAS (amino acid residues 1-188) (Homo sapiens, UniProt P01116, G12C): what IC50 does the record show for Fc1cc2c(N3C[C@H]4CC[C@@H](C3)N4)nc(OCC34CCCN3CCC4)nc2c(F)c1-c1c[nH]c2cccc(C(F)(F)F)c12 ? 0.0001 to 10 µM

Query for G12C-mutant human KRAS (amino acid residues 1-188) (Homo sapiens, UniProt P01116, G12C): what IC50 does the record show for CN1CCC[C@H]1COc1nc(N2C[C@H]3CC[C@@H](C2)N3)c2cc(F)c(-c3c[nH]c4ccc(Cl)nc34)c(F)c2n1 ? 100 to 1000 µM

Query for G12C-mutant human KRAS (amino acid residues 1-188) (Homo sapiens, UniProt P01116, G12C): what IC50 does the record show for Oc1cc(-c2ccc3c(N4C[C@H]5CC[C@@H](C4)N5)nc(OCC(F)F)nc3c2F)c2ccccc2c1 ? 10 to 100 µM

Query for G12C-mutant human KRAS (amino acid residues 1-188) (Homo sapiens, UniProt P01116, G12C): what IC50 does the record show for Oc1cc(-c2ccc3c(N4C[C@H]5CC[C@@H](C4)N5)nc(OCC4CC4(F)F)nc3c2F)c2ccccc2c1 (stereo partly drawn) ? 10 to 100 µM

Query for G12C-mutant human KRAS (amino acid residues 1-188) (Homo sapiens, UniProt P01116, G12C): what IC50 does the record show for CN1CCN(CCCC(=O)N2[C@@H]3CC[C@H]2CN(c2nc(OC[C@@H]4CCCN4C)nc4cc(-c5cc(O)cc6ccccc56)ccc24)C3)CC1 ? 0.0001 to 10 µM

Query for G12C-mutant human KRAS (amino acid residues 1-188) (Homo sapiens, UniProt P01116, G12C): what IC50 does the record show for CN1CCC[C@H]1COc1nc(N2C[C@H]3CC[C@@H](C2)N3)c2cc(C(=O)O)c(-c3cc(O)cc4ccccc34)c(F)c2n1 ? 10 to 100 µM

Query for G12C-mutant human KRAS (amino acid residues 1-188) (Homo sapiens, UniProt P01116, G12C): what IC50 does the record show for Oc1cc(-c2ccc3c(N4C[C@H]5CC[C@@H](C4)N5)nc(N4CCC(O)C4)nc3c2F)c2ccccc2c1 (stereo partly drawn) ? 100 to 1000 µM

Query for G12C-mutant human KRAS (amino acid residues 1-188) (Homo sapiens, UniProt P01116, G12C): what IC50 does the record show for CN1CCC2CN(c3nc(N4C[C@H]5CC[C@@H](C4)N5)c4ccc(-c5cc(O)cc6ccccc56)c(F)c4n3)CC21 (stereo partly drawn) ? 10 to 100 µM

Query for G12C-mutant human KRAS (amino acid residues 1-188) (Homo sapiens, UniProt P01116, G12C): what IC50 does the record show for N#CC1CC(COc2nc(N3C[C@H]4CC[C@@H](C3)N4)c3ccc(-c4cc(O)cc5ccccc45)c(F)c3n2)C1 (stereo partly drawn) ? 10 to 100 µM

Query for G12C-mutant human KRAS (amino acid residues 1-188) (Homo sapiens, UniProt P01116, G12C): what IC50 does the record show for COc1cccc2c(-c3c(F)cc4c(N5C[C@H]6CC[C@@H](C5)N6)nc(OC[C@@H]5CCCN5C)nc4c3F)c[nH]c12 ? 100 to 1000 µM

Query for G12C-mutant human KRAS (amino acid residues 1-188) (Homo sapiens, UniProt P01116, G12C): what IC50 does the record show for CN1CCC[C@H]1COc1nc(N2C[C@H]3CC[C@@H](C2)N3)c2ccc(-c3c[nH]c4cccc(C(F)(F)F)c34)cc2n1 ? 10 to 100 µM

Query for G12C-mutant human KRAS (amino acid residues 1-188) (Homo sapiens, UniProt P01116, G12C): what IC50 does the record show for Oc1cc(-c2ncc3c(N4C[C@H]5CC[C@@H](C4)N5)nc(OCC45CCCN4CCC5)nc3c2F)c2ccccc2c1 ? 0.0001 to 10 µM

Query for G12C-mutant human KRAS (amino acid residues 1-188) (Homo sapiens, UniProt P01116, G12C): what IC50 does the record show for Oc1cc(-c2c(F)cc3c(N4C[C@H]5CC[C@@H](C4)N5)nc(OCC45CCCN4CCC5)nc3c2F)c2ccccc2c1 ? 0.0001 to 10 µM
